Origin of values: ChEMBL document CHEMBL4888484

- Test system: Plasmodium falciparum
- Assay Text: Confirmatory screen in NF54 nanoGlo assay, in single point, at 2uM, 72h
- Type: functional, Erythrocyte
- Condition Label: timepoint 72 hour
The campaign covered roughly 4,800 compounds. About 420 (8.8%) showed an effect of 50% or more. What follows is part of a selection rich in strong results, with near analogues and random picks from the rest.
Measured Parameter: % Inhibition (%)

- Compound Structure: "CCOc1cc(C(=O)Nc2ccc3nc4c(c(Nc5ccc(OC)c(OC)c5)c3c2)CCCC4)cc(OCC)c1OCC"
  Measured Parameter: "% Inhibition"
  Meas Value: 96
- Compound Structure: "O=S(=O)(c1ccc(Cl)cc1)N1CCN(C2CCCC2)CC1"
  Measured Parameter: "% Inhibition"
  Meas Value: 2
- Compound Structure: "Cc1cc(C#N)cc(C)c1Oc1nc(Nc2ccc(C#N)cc2Br)nc(N)c1Br"
  Measured Parameter: "% Inhibition"
  Meas Value: -9
- Compound Structure: "Cn1cccc1C(=O)N1CCCN(S(C)(=O)=O)[C@H]2CCC[C@H]2C(=O)NCC1"
  Measured Parameter: "% Inhibition"
  Meas Value: 0
- Compound Structure: "S=c1cc(-c2ccccc2)n(Cc2ccco2)c2c1CCCC2"
  Measured Parameter: "% Inhibition"
  Meas Value: 38

###

- Tested on: Plasmodium falciparum
- Assay Text: Confirmatory screen in NF54 nanoGlo assay, in single point, at 2uM, 72h
- Format: functional, Erythrocyte
- Condition Label: timepoint 72 hour
The campaign covered roughly 4,800 compounds. About 420 (8.8%) showed an effect of 50% or more. This excerpt belongs to a sample that is enriched for strong results. Where a SMILES comes first, the peptide text is derived from it. The star is where a group is joined. NHPhenethyl = c1ccc(CCN*)cc1

- Compound: "CCc1nnc(COC(=O)c2csc(NC)n2)o1"
  % Inhibition: "6%"
- Compound: "Oc1nc(-c2cccc(C(F)(F)F)c2)sc1-c1ccccc1"
  % Inhibition: "0%"
- Compound: "CC1CC(N)CCN1C(=O)c1cccc(-c2noc(C3CC3)n2)c1 (centres undefined)"
  % Inhibition: "2%"
- Compound: "Cc1noc(C)c1CC(=O)Nc1cccc(-c2nnco2)c1"
  % Inhibition: "3%"
- Compound: "CCOCCCNC/C=C/c1ccccc1"
  % Inhibition: "-5%"
- Compound: "CCCCC[C@H](C)NC(=O)CCC(=O)Nc1cccnc1"
  % Inhibition: "-11%"
- Compound: "CCOc1ccc(NC(=O)Cn2cnc3c(-c4cccc(OC)c4)cn(C)c3c2=O)cc1"
  % Inhibition: "-1%"
- Compound: "Cc1cc2c(cc1C)[C@H](C(=O)Nc1cc(C(N)=O)ccc1Cl)CO2"
  % Inhibition: "-1%"
- Compound: "Cn1cc(-c2ccc(Cl)cc2)c2ncn(CC(=O)Nc3cccc(Cl)c3)c(=O)c21"
  % Inhibition: "-5%"
- Compound: "CCCCN(CC)CCNC(=O)C1CCN(C2=NS(=O)(=O)C(c3ccc(OC)cc3)=C2C)CC1"
  % Inhibition: "32%"
- Compound: "Cc1ccc(NC(=O)Nc2cccc(-c3ccc(N4CCN(C)CC4)nn3)c2)cc1C"
  % Inhibition: "10%"
- Compound: "Cc1ccc(NC(=O)c2c(C)nc3sc(C(=O)NCc4ccccc4)c(N)c3c2-c2ccccc2Cl)c(C)c1"
  % Inhibition: "77%"
- Compound: "CC(C)CN(CC(C)(C)C)C(=O)c1cc[nH]n1"
  % Inhibition: "-6%"
- Compound: "CCc1nnc2ccc(S(=O)(=O)Nc3cc(F)cc(F)c3)cn12"
  % Inhibition: "-5%"
- Compound: "O=C(CCc1nc(CN2CCN(S(=O)(=O)c3ccc(F)cc3)CC2)no1)N1CCCC1"
  % Inhibition: "-4%"
- Compound: "N[C@H]1COc2ccc(Br)cc2C1=O"
  % Inhibition: "-3%"
- Compound: "CCCNC(=O)C1=Cc2ccccc2OC=C1"
  % Inhibition: "-9%"
- Compound: "O=C(c1cc2ncccn2n1)N1CCc2ccccc2C1"
  % Inhibition: "-3%"
- Compound: "Cc1cccc(Nc2nc(-c3cnc(N4CCN(C)CC4)nc3C)cc(=O)[nH]2)c1"
  % Inhibition: "-7%"
- Compound: "Cn1ccnc(N[C@@H](COc2ccccc2F)c2ccccc2)c1=O"
  % Inhibition: "-7%"
- Compound: "Cc1ccccc1C(=O)N(Cc1cccc(F)c1)c1ccc(CC(=O)NCCN2CCCCC2)cc1"
  % Inhibition: "44%"
- Compound: "Cc1c(C(=O)NC2CC2)cc(-c2ccccc2)n1C"
  % Inhibition: "-3%"
- Compound: "CC(C)(C)OC(=O)N1CCC2(CC1)NN=C1C=C(N3CCN(c4ccccc4F)CC3)N=CN12"
  % Inhibition: "-8%"
- Compound: "Cc1ccc(C)c(C(=O)CN2Cc3ccccc3C2=N)c1"
  % Inhibition: "0%"
- Compound: "Cc1noc(C)c1CN1CCNC(=O)CC1"
  % Inhibition: "-11%"
- Compound: "CC(C)N(CC(=O)Nc1nccs1)Cc1ccccn1"
  % Inhibition: "68%"
- Compound: "Cc1onc(C(=O)N2CCC3(CC2)CC[C@]3(C)O)c1Cn1cccn1"
  % Inhibition: "-6%"
- Compound: "Cc1nc2cc3c(cc2n1CC(=O)Nc1ccc(Cl)cc1)OCCCO3"
  % Inhibition: "-4%"
- Compound: "Cc1c(Cl)cccc1NC(=O)[C@H]1CC(=O)N(c2ccc(OCc3ccccc3)cc2)C1"
  % Inhibition: "-3%"
- Compound: "N#Cc1ccc(N2CCN3C(=O)NCC3C2)nc1N1CCN2C(=O)NCC2C1 (centres undefined)"
  % Inhibition: "-12%"
- Compound: "Cc1ccc(NC(=O)c2c(C)nc3sc(C(=O)NCc4ccccc4)c(N)c3c2-c2cccs2)c(C)c1"
  % Inhibition: "2%"
- Compound: "C[C@@H](C1CC1)N(C1CC1)S(=O)(=O)c1ccc(F)cc1F"
  % Inhibition: "-2%"
- Compound: "CCn1nccc1CNc1cc(Cl)cc2c1OCC2"
  % Inhibition: "-8%"
- Compound: "CCCCNC(=O)Nc1cccc(C#CCN)n1"
  % Inhibition: "-2%"
- Compound: "C[C@@H]1CN(C[C@@H]2CN(CCOCc3ccccc3)C[C@@H]2CO)C[C@H](C)O1"
  % Inhibition: "-5%"
- Compound: "Cc1ccccc1[C@H]1CCN(c2ccc(NC(=O)c3ccc(F)cc3)c(C(=O)O)c2)C1"
  % Inhibition: "-11%"
- Compound: "CCN(CC)[C@H](CNC(=O)C1=NN(C)C(=O)CC1)Cc1ccccc1"
  % Inhibition: "2%"
- Compound: "CC(C)c1nc(CN(C)[C@@H](C)C(=O)Nc2nccs2)cs1"
  % Inhibition: "22%"
- Compound: "CC(N)C(=O)NC(C)C(=O)NCCc1ccccc1 (stereo not drawn) (H-Ala-Ala-NHPhenethyl; configuration not given here)"
  % Inhibition: "-5%"
- Compound: "CC(C)(C(=O)Nc1nccs1)c1cccnc1"
  % Inhibition: "-2%"
- Compound: "Cc1nnc(-c2ccc3ccn(CC(=O)Nc4ccc(F)c(Cl)c4)c3c2)o1"
  % Inhibition: "78%"
- Compound: "Oc1ccccc1-c1cnc(C(F)(F)F)s1"
  % Inhibition: "94%"
- Compound: "COCCN(CC1CN(Cc2ccccc2OC)CC1c1ccccc1OC)C(=O)COC (centres undefined)"
  % Inhibition: "-2%"
- Compound: "CCOC[C@@H](O)CN(Cc1c(C)nn(-c2ccccc2)c1Oc1cccc(C)c1)C1CC1"
  % Inhibition: "10%"

###

- Test system: Plasmodium falciparum
- Assay Text: Confirmatory screen in NF54 nanoGlo assay, in single point, at 2uM, 72h
- Assay type: functional, Erythrocyte
- Condition Label: timepoint 72 hour
Among all 4,800 compounds or so, about 420 (8.8%) showed an effect of 50% or more. Shown is part of a subset that was picked to be rich in strong results.
Measured % Inhibition accompanies every entry in the list below.
Measured Parameter: % Inhibition (%)

- Compound: "CCOc1cccc(CNC(=O)c2nn[nH]c2Nc2ccc(C)c(C)c2)c1"
  U: "%"
  Meas Value: 1
- Compound: "COc1ccc([C@@H]2CN(S(=O)(=O)c3ccc(OC)cc3)CCN2C)cc1"
  U: "%"
  Meas Value: 1
- Compound: "CC1CCN(C(=O)Cc2csc(NC(=O)c3cccc(O)c3)n2)CC(C)C1 (stereo not given)"
  U: "%"
  Meas Value: -10
- Compound: "CS(=O)(=O)Nc1nc2ccc(NC(=O)c3cc(-c4ccccc4)nc4ccccc34)cc2s1"
  U: "%"
  Meas Value: 0
- Compound: "Clc1ccc(-c2noc(C3CNC3)n2)cc1"
  U: "%"
  Meas Value: 21
- Compound: "C[C@H](Oc1ccccc1)C(=O)N1CCC(c2nc(-c3ccc4c(c3)OCO4)no2)CC1"
  U: "%"
  Meas Value: 6
- Compound: "Fc1ccccc1N1CCN(c2c3c(nc4nc(Cc5ccc(Cl)cc5)nn24)CCCC3)CC1"
  U: "%"
  Meas Value: -11
- Compound: "Cc1nn(C)c(C)c1-c1cc(C(=O)Nc2sc3c(c2C#N)CCCC3)c2ccccc2n1"
  U: "%"
  Meas Value: -13
- Compound: "COc1ccc(S(=O)(=O)Nc2c(C)ccc3nsnc23)cc1OC"
  U: "%"
  Meas Value: 4
- Compound: "c1cc(-c2noc(C3CC3)n2)nc(N2CCNCC2)n1"
  U: "%"
  Meas Value: -12
